Measured values drawn from patent US11953435B2 for this set.

# method_summary: Photophysical properties in aqueous buffer (UV-visible, fluorescence, quantum yield, extinction coefficient)
# Type: physicochemical
# test_conditions: Zn-bound, aqueous buffer pH 7.2
// reported λEm (max) per item
quantity_kind: λEm (max) (nm)

molecule | measured
Cc1cc(C)c(C2=C3C=CC(OCCN=[N+]=[N-])=[N+]3[B-](F)(F)n3c2ccc3N(CCN(Cc2ccccn2)Cc2ccccn2)Cc2ccccn2)c(C)c1 [ZincBY-2] | 552
COc1ccc2n1[B-](F)(F)[N+]1=C(N(CCN(Cc3ccccn3)Cc3ccccn3)Cc3ccccn3)C=CC1=C2c1c(C)cc(C)cc1C [ZincBY-1, reference compound] | 543
Cc1cc(C)c(C2=C3C=CC(OCCN)=[N+]3[B-](F)(F)n3c2ccc3N(CCN(Cc2ccccn2)Cc2ccccn2)Cc2ccccn2)c(C)c1 [ZincBY-3] | 537
CC(=O)NCCOc1ccc2n1[B-](F)(F)[N+]1=C(N(CCN(Cc3ccccn3)Cc3ccccn3)Cc3ccccn3)C=CC1=C2c1c(C)cc(C)cc1C [ZincBY-4] | 537
